Data origin, for the record: the supplement of paper PMC11061612

Test system: NCI-N87 (Gastric Carcinoma);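 further: after 72 h of two-drug dosing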
protocol_text: Bliss excess, mean over the matrix (fraction); higher = more synergy
Label Condition met when Bliss excess is at or above 0.004; anything below gets Condition not met.

Q) Decide: Bliss excess of N#Cc1cnc(Nc2cc(NC[C@H]3CNCCO3)c(C(F)(F)F)cn2)cn1 [SRA737] + Nc1ccn([C@@H]2O[C@H](CO)[C@@H](O)C2(F)F)c(=O)n1 [Gemcitabine] (first compound max 10 µM, 7x7, partner max 0.3 µM) >= 0.004?
A) Condition not met

Q) Would you mind doing C[C@@H]1COCCN1c1cc(C2([S@](C)(=N)=O)CC2)nc(-c2ccnc3[nH]ccc23)n1 [AZD6738] + Nc1ccn([C@@H]2O[C@H](CO)[C@@H](O)C2(F)F)c(=O)n1 [Gemcitabine] (first compound max 10 µM, 7x7, partner max 0.3 µM) as well?
A) Condition met

Q) Same thing, different compound: COc1nnc2ccc(N3CCC(c4ccc(OCCN5CCN(C)C(=O)[C@H]5C)cc4)CC3)nn12 [AZD5153] + CCN(CCO)CCCOc1ccc2c(Nc3cc(CC(=O)Nc4cccc(F)c4)[nH]n3)ncnc2c1 [AZD2811] (first compound max 1 µM, 7x7, partner max 1 µM)
A) Condition not met

Q) Now give it for Cc1cc2ncnn2cc1Nc1ncc2c(n1)n(C1CCOCC1)c(=O)n2C [AZD7648] + O=C(c1cc(Cc2n[nH]c(=O)c3ccccc23)ccc1F)N1CCN(C(=O)C2CC2)CC1 [Olaparib] (first compound max 10 µM, 7x7, partner max 10 µM) too.
A) Condition not met

Q) Similarly, CN(CCO)CC[C@H](CSc1ccccc1)Nc1ccc(S(=O)(=O)NC(=O)c2ccc(N3CCC([C@@H](O)c4ccccc4-c4ccc(Cl)cc4)CC3)cc2)cc1S(=O)(=O)C(F)(F)F [AZD4320] + Cn1cnc2c(F)c(Nc3ccc(Br)cc3Cl)c(C(=O)NOCCO)cc21 [Selumetinib] (first compound max 1 µM, 7x7, partner max 3 µM) ?
A) Condition met

Q) Try the compound C[C@@H]1COCCN1c1cc(C2([S@](C)(=N)=O)CC2)nc(-c2ccnc3[nH]ccc23)n1 [AZD6738] + O=C(c1cc(Cc2n[nH]c(=O)c3ccccc23)ccc1F)N1CCN(C(=O)C2CC2)CC1 [Olaparib] (first compound max 10 µM, 7x7, partner max 10 µM)
A) Condition met

Q) One more compound: CC1(C)CCC(CN2CCN(c3ccc(C(=O)NS(=O)(=O)c4ccc(NCC5CCOCC5)c([N+](=O)[O-])c4)c(Oc4cnc5[nH]ccc5c4)c3)CC2)=C(c2ccc(Cl)cc2)C1 [Venetoclax] + C=CCn1c(=O)c2cnc(Nc3ccc(N4CCN(C)CC4)cc3)nc2n1-c1cccc(C(C)(C)O)n1 [AZD1775] (first compound max 1 µM, partner max 1 µM)
A) Condition met

Q) Thanks! And C[C@@H](Oc1cc(-c2cnn(C3CCNCC3)c2)cnc1N)c1c(Cl)ccc(F)c1Cl [Crizotinib] + Cn1cnc2c(F)c(Nc3ccc(Br)cc3Cl)c(C(=O)NOCCO)cc21 [Selumetinib] (first compound max 10 µM, 7x7, partner max 10 µM) ?
A) Condition not met

Q) Queued: NC1(C(=O)N[C@@H](CCO)c2ccc(Cl)cc2)CCN(c2ncnc3[nH]ccc23)CC1 [Capivasertib] + COc1nnc2ccc(N3CCC(c4ccc(OCCN5CCN(C)C(=O)[C@H]5C)cc4)CC3)nn12 [AZD5153] (first compound max 10 µM, 7x7, partner max 1 µM)
A) Condition not met
